Source: patent US7122545B2

Provide the recorded melting point for the entries that follow.
Where a name gives a salt, the structure may show the parent alone.

Worked examples, 6 molecules total:
COc1ccc(N2CCOCC2)c2sc(-c3nc4c([nH]3)CCNCC4)nc12.Cl; 267 to 269 °C
COc1ccc(N2CCOCC2)c2sc(-c3nc(-c4cccs4)c[nH]3)nc12 (as salt: ammonium); 165 °C
COCn1c(-c2nc3c(OC)ccc(N4CCOCC4)c3s2)nc2ccc(Cl)nc21; 167 to 170 °C
COc1ccc(N2CCOCC2)c2sc(-c3nc4c([nH]3)CCNC4)nc12.Cl; 268 to 271 °C
COc1ccc(N2CCOCC2)c2sc(-c3nc4ccccc4[nH]3)nc12; 284 to 286 °C
COc1ccc(N2CCOCC2)c2sc(-c3nc4c([nH]3)CCN(C(=O)OC(C)(C)C)CC4)nc12; 142 to 144 °C

# map each molecule to its melting point
1. COc1ccc(N2CCOCC2)c2sc(-c3nc(-c4ccsc4)c[nH]3)nc12 (as salt: ammonium)
2. COc1ccc(N2CCOCC2)c2sc(-c3nc4ccccc4n3C)nc12
3. COc1ccc(N2CCOCC2)c2sc(-c3nc4c([nH]3)COCC4)nc12

Response line:
170 °C
283 to 285 °C
203 to 204 °C

Recorded melting point (molecule `COc1ccc(N2CCOCC2)c2sc(-c3ncc(-c4csc5ccccc45)[nH]3)nc12` ): 161 to 162 °C
